System: 885724-159-R-J1-PDC complex spheroid viability;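 also: spheroids exposed to compounds for 7 days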
ASSAY NAME: Anticancer human tumor 885724-159-R-J1-PDC patient-derived pancreatic adenocarcinoma cell line growth inhibition [POLQ]
CONDITION SET: second compound 0.0316 µM; first compound 1 µM; hits give low values
RECORDED METRIC: viability, T/C

The examples below pair each entry with its known result.
CNCc1ccc(-c2[nH]c3cc(F)cc4c3c2CCNC4=O)cc1 + COC1C(OC(N)=O)C(O)C(Oc2ccc3c(O)c(NC(=O)c4ccc(O)c(CC=C(C)C)c4)c(=O)oc3c2C)OC1(C)C
94.7%
C=CC(=O)N1CCN(c2nc(=O)n(-c3c(C)ccnc3C(C)C)c3nc(-c4c(O)cccc4F)c(F)cc23)C(C)C1 (stereo not drawn) + COC1C(OC(N)=O)C(O)C(Oc2ccc3c(O)c(NC(=O)c4ccc(O)c(CC=C(C)C)c4)c(=O)oc3c2C)OC1(C)C
113%

Q: Consider the compound Nc1ccn(C2OC(CO)C(O)C2(F)F)c(=O)n1 (stereo not drawn) + COC1C(OC(N)=O)C(O)C(Oc2ccc3c(O)c(NC(=O)c4ccc(O)c(CC=C(C)C)c4)c(=O)oc3c2C)OC1(C)C and give its recorded viability, T/C.
A: 49.7%
